Hey, just so you know, these numbers are from ChEMBL document CHEMBL5291721.

Each entry below carries its reported AC50.
assaySystem: Alpha-2A adrenergic receptor (Homo sapiens); note: assay procedure not described here
Sequence (P08913 whole entry): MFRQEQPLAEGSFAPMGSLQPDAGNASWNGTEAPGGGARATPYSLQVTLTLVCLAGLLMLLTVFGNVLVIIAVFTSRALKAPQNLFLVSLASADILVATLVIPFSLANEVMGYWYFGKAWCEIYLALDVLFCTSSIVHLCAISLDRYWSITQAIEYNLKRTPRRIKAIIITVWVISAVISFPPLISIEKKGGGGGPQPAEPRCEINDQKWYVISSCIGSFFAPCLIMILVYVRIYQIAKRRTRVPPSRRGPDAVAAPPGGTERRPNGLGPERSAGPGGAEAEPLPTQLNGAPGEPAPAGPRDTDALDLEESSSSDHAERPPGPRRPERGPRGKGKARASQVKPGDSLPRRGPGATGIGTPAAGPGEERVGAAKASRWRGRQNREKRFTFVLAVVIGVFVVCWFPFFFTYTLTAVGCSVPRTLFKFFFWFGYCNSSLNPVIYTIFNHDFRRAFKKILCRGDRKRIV
Assay type: functional, cell-based

Past entries and their recorded results:
>>> reportedresult("CC(=O)OCC(=O)[C@@]1(O)CC[C@H]2[C@@H]3CCC4=CC(=O)CC[C@]4(C)C3=CC[C@@]21C [ANECORTAVE ACETATE]")
"> 10 µM"
>>> reportedresult("CCn1cc(C(=O)O)c(=O)c2cc(F)c(N3CCN(C)CC3)cc21")
"> 30 µM"
>>> reportedresult("CCc1oc2ccccc2c1C(=O)c1cc(Br)c(O)c(Br)c1")
"> 30 µM"

Looking for the measured AC50 of CCCC(C)(COC(N)=O)COC(=O)NC(C)C (configuration not stated) , can you help?
> 10 µM

Could you do the same for CO[C@@]1(NC(=O)Cc2cccs2)C(=O)N2C(C(=O)O)=C(COC(N)=O)CS[C@@H]21 , please?
> 30 µM

Again, but for CCCN(CC)C(CC)C(=O)Nc1c(C)cccc1C (configuration not stated)
> 30 µM

Similarly, NS(=O)(=O)c1cc(C2(O)NC(=O)c3ccccc32)ccc1Cl (configuration not stated) ?
> 10 µM

For C[C@]12CC[C@H](O)CC1=CC[C@@H]1[C@@H]2CC[C@]2(C)C(c3cccnc3)=CC[C@@H]12 then?
> 10 µM
